Target: Tdp1 (Homo sapiens)
Construct: made in house
Experiment: Real-time detection of Tdp1 activity (FAM/BHQ1 oligonucleotide biosensor)
Type: biochemical
Details: Tdp1 inhibition, 6-point concentration response curve
pIC50: −log10 of the molar value.
Readout kind: pIC50

P = CC1(C)[C@@H]2CC=C(COc3ccc4c(-c5ccc(Br)cc5)cc(=O)oc4c3)[C@H]1C2
Q = COc1ccc(-c2cc(=O)oc3cc(OCCC4=CC[C@H]5C[C@@H]4C5(C)C)ccc23)cc1
Which entry has a larger number for pIC50, P or Q ? Give the label under which the chosen entry appears.
P

====

Target: human Tdp1 (residues 149-608) (Homo sapiens)
Readout kind: Kd (µM)
The answer is to be given in µM; state only the numeric part.

// lookup Kd for CC(C)=CCC/C(C)=C/COc1ccc2c(-c3ccc(F)cc3)cc(=O)oc2c1
63

====

Molecular target: Tdp1 (Homo sapiens)
Construct: made in house
Assay: Real-time detection of Tdp1 activity (FAM/BHQ1 oligonucleotide biosensor)
Assay type: biochemical
Details: Tdp1 inhibition, 6-point concentration response curve
Procedure: A previously designed, real-time, hexadecameric oligonucleotide biosensor with 5(6)-carboxyfluorescein (FAM) at the 5′ end and fluorophore quencher BHQ1 (Black Hole Quencher-1) at the 3′-end was used to determine the inhibitory properties of the new compounds. Real-Time Detection of Tdp1 Activity. […] Tdp1 inhibition was calculated by comparing the rate of increase in fluorescence in the presence of the compound to that of DMSO control wells. […]
Readout kind: IC50 (nM)

Example results:
CC1(C)[C@H]2CC=C(CCOc3ccc4c(-c5ccc(Br)cc5)cc(=O)oc4c3)[C@@H]1C2    590
CC(C)=CCC/C(C)=C/COc1ccc2c(-c3ccc(Br)cc3)cc(=O)oc2c1    900
O=c1cc(-c2ccc(Br)cc2)c2ccc(OCc3ccccc3)cc2o1 [10c]    2400

1 = CC1(C)[C@@H]2CC=C(COc3ccc4c(-c5ccccc5)cc(=O)oc4c3)[C@H]1C2
2 = CC1(C)[C@H]2CC=C(COc3ccc4c(-c5ccc(F)cc5)cc(=O)oc4c3)[C@@H]1C2
Which entry has a larger number for IC50, 1 or 2 ? Give the label under which the chosen entry appears.
2
(2: 990 nM, 1: 480 nM)

I = CC1(C)[C@H]2CC=C(CCOc3ccc4c(-c5ccccc5)cc(=O)oc4c3)[C@@H]1C2
II = COc1ccc(-c2cc(=O)oc3cc(OCC4=CC[C@H]5C[C@@H]4C5(C)C)ccc23)cc1
Which entry has a larger number for IC50, I or II ? Give the label under which the chosen entry appears.
II

====

Target: Tdp1 (Homo sapiens, UniProt Q9NUW8)
Construct: made in house
Sequence (Q9NUW8 whole entry): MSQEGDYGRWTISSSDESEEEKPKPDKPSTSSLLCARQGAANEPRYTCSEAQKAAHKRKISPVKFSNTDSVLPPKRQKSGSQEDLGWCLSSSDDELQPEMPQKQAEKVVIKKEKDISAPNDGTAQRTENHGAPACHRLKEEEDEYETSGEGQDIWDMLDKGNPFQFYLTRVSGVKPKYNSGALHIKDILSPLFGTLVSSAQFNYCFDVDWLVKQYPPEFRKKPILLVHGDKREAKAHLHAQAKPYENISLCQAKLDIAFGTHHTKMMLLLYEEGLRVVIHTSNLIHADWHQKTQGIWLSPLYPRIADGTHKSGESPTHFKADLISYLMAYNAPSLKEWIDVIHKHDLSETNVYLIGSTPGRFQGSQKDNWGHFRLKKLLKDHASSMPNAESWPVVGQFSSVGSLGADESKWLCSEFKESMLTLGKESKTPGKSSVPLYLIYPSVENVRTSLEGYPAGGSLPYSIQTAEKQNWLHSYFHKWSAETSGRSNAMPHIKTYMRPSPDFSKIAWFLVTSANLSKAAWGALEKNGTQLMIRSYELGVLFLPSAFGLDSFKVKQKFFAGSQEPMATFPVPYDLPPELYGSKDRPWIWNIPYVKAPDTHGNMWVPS
Assay: Real-time detection of Tdp1 activity (FAM/BHQ1 oligonucleotide biosensor)
Type: biochemical
Conditions: Tdp1 inhibition, 6-point concentration response curve
Readout kind: IC50 (nM)

CC(C)=CCC/C(C)=C/COc1ccc2c(-c3ccccc3)cc(=O)oc2c1    490

a = COc1ccc(-c2cc(=O)oc3cc(OCc4ccccc4)ccc23)cc1 [10d]
b = CC1(C)[C@H]2CC=C(CCOc3ccc4c(-c5ccc(F)cc5)cc(=O)oc4c3)[C@@H]1C2
c = COc1ccc(-c2cc(=O)oc3cc(OCC4=CC[C@@H]5C[C@H]4C5(C)C)ccc23)cc1
d = CC1(C)[C@@H]2CC=C(COc3ccc4c(-c5ccc(F)cc5)cc(=O)oc4c3)[C@H]1C2
Order each entry by recorded IC50, climbing from the minimum. Please list the labels in the order you were asked to rank them.
c, d, a, b
(c: 590 nM, d: 1030 nM, a: 3310 nM, b: 7500 nM)

A = CC1(C)[C@H]2CC=C(COc3ccc4c(-c5ccc(Br)cc5)cc(=O)oc4c3)[C@@H]1C2
B = CC1(C)[C@H]2CC=C(COc3ccc4c(-c5ccccc5)cc(=O)oc4c3)[C@@H]1C2
Which entry has a larger number for IC50, A or B ? Give the label under which the chosen entry appears.
A
